- TARGET_OR_TEST_SYSTEM: dsRBD3/4 K133A (Homo sapiens, UniProt O95793-2 102-274, K133A)
- Sequence (O95793 183-355 K214A): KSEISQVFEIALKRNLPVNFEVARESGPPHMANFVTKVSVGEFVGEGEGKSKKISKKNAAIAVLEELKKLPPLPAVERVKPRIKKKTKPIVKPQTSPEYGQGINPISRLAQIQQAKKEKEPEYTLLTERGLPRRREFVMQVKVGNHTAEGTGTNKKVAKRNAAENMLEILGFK
- METHOD_DESCRIPTION: fluorescence anisotropy
ENDPOINT: pKd
One number for each entry, as −log10 of the molar value.

Supply recorded pKd for GGCAGAAGCUGCCUCUUCGGAGGCAGUUUCUGCC (structured_RNA) [top 2/3 ARF1 SBS (sARF1 SBS)] here.
7.63
